B1: E61R, Q93D82 (parent)
chain: MSTAIVTNVKHFGGMGSALRLSEAGHTVACHDESFKQKDELEAFAETYPQLKPMSEQEPAELIEAVTSAYGQVDVLVSNDIFAPEFQPIDKYAVEDYRGAVEALQIRPFALVNAVASQMKKRKSGHIIFITSATPFGPWKELSTYTSARAGACTLANALSKELGEYNIPVFAIGPNYLHSEDSPYFYPTEPWKTNPEHVAHVKKVTALQRLGTQKELGELVAFLASGSCDYLTGQVFWLAGGFPMIERWPGMPE

Variants of: B1
Measurement Conditions: Rhizobium radiobacter; pH 7.7; Thermal; CD; Phosphate 5mM; structure 1PWX; whole UniProt chain shown
Property: change of melting temperature, mutant - wild type (higher = more stable); scope: individual variants
Reply numerically in °C, unit not repeated.

Solved cases (5 shown):
Give its change of melting temperature, mutant - wild type (higher = more stable) value. Item: `E61R` -0.5

Give its change of melting temperature, mutant - wild type (higher = more stable) value. Item: `E64A` 1

Give its change of melting temperature, mutant - wild type (higher = more stable) value. Item: `A45L` -1

Give its change of melting temperature, mutant - wild type (higher = more stable) value. Item: `R98I` -0.5

Give its change of melting temperature, mutant - wild type (higher = more stable) value. Item: `S22A` -0.5

Others:
Give its change of melting temperature, mutant - wild type (higher = more stable) value. Item: `A83N` -2

Give its change of melting temperature, mutant - wild type (higher = more stable) value. Item: `S117K` 0

Give its change of melting temperature, mutant - wild type (higher = more stable) value. Item: `F86W` -0.5

Give its change of melting temperature, mutant - wild type (higher = more stable) value. Item: `E56A` 0

Give its change of melting temperature, mutant - wild type (higher = more stable) value. Item: `E190T` 1.5

Give its change of melting temperature, mutant - wild type (higher = more stable) value. Item: `C153I` -5
